- System: MCF10A
- protocolNotes: percent viability (nuclei count relative to siNT); higher = more viable cells
- conditionDescription: 20 nM; 72 h
measuredMetric: percent viability (%)
Answers are plain numbers, in %.

sequence | measuredMetric | testValue
AUGGUUCCGUCAAGCACCAUGG [hsa-miR-218-1-3p] | percent viability | 51
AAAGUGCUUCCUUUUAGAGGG [hsa-miR-520b] | percent viability | 70.9
UGCGGCAGAGCUGGGGUCA [hsa-miR-6820-5p] | percent viability | 16.9
AUAUGGGUUUACUAGUUGGU [hsa-miR-3115] | percent viability | 25
ACUGGACUUGGUGUCAGAUGG [hsa-miR-378h] | percent viability | 80

# per-item lookup of percent viability; items listed below
1. AGUUCUUCAGUGGCAAGCUUUA [hsa-miR-22-5p]
2. AGAUGUAUGGAAUCUGUAUAUAUC [hsa-miR-3171]
3. UCCCCUGCUCCCUUGUUCCCCAG [hsa-miR-6810-3p]
4. AAAUAUAUAUAUAUAUGUACGUAU [hsa-miR-1277-5p]
5. AGAGAAGAAGAUCAGCCUGCA [hsa-miR-1253]
6. CGGGUGGGAGCAGAUCUUAUUGAG [hsa-miR-6766-5p]
7. ACCUUGCCUUGCUGCCCGGGCC [hsa-miR-1915-5p]
8. UUCUAGAUGAGAGAUAUAUAUA [hsa-miR-4777-5p]

Output:
75.4
91.9
35.1
47.1
84.6
76.6
34.9
34.7

---

- Test system: MCF10A
- protocolNotes: one-nucleolus phenotype percent effect (relative to siNT 0% and siNOL11 100%); higher = more cells with one nucleolus (ribosome biogenesis inhibition)
- conditionDescription: 20 nM; 72 h
Would you kindly list one-nucleolus phenotype percent effect for each of these sequences?

sequence | measuredMetric | testValue
GAUGCGCCGCCCACUGCCCCGCGC [hsa-miR-4787-3p] | one-nucleolus phenotype percent effect | -16.2%
CUUAGAUUAGAGGAUAUUGUU [hsa-miR-8061] | one-nucleolus phenotype percent effect | -12.7%
UAGAUCUUUGACUCUGGCAGUCUCCAGG [hsa-miR-7161-3p] | one-nucleolus phenotype percent effect | -23.9%

With those in mind, consider the next sequence.
Input: For the sequence shown here, UAAUUGCUUCCAUGUUU [hsa-miR-302f] , give the reported one-nucleolus phenotype percent effect.
Output: 22.1%

---

- Tested on: MCF10A
- protocolNotes: 5+ nucleoli phenotype percent effect (relative to siNT 0% and siKIF11 100%); higher = more cells with five or more nucleoli
- conditionDescription: 20 nM; 72 h
For each record, write down the corresponding 5+ nucleoli phenotype percent effect.
Give bare numbers, in %.

sequence | measuredMetric | testValue
ACCGCCUGCCCAGUGA [hsa-miR-4485-5p] | 5+ nucleoli phenotype percent effect | 24.1
UCAGCAAACAUUUAUUGUGUGC [hsa-miR-545-3p] | 5+ nucleoli phenotype percent effect | 27.8

Now for another entry.
Input: Entry under review: CGUGCCACCCUUUUCCCCAG [hsa-miR-1227-3p] . Reported 5+ nucleoli phenotype percent effect?
Output: -2.5

---

- Test system: MCF10A
- protocolNotes: 5+ nucleoli phenotype percent effect (relative to siNT 0% and siKIF11 100%); higher = more cells with five or more nucleoli
- conditionDescription: 20 nM; 72 h
measuredMetric: 5+ nucleoli phenotype percent effect (%)
Numbers only, in %.

sequence | 5+ nucleoli phenotype percent effect (%)
UCUGGUCCUGGACAGGAGGC [hsa-miR-7152-3p] | 18.5
UUAGCGGUGGACCGCCCUGCG [hsa-miR-4321] | 3.56

Input: Name the recorded 5+ nucleoli phenotype percent effect for AGUGGCAAAGUCUUUCCAUAU [hsa-miR-3688-5p] .
Output: -15.4

Data origin, for the record: the supplement of paper PMC10899765
